Assay: qHTS for Inhibitors of human tyrosyl-DNA phosphodiesterase 1 (TDP1): qHTS in cells in presence of CPT; further: nearly all actives have a fitted effect of over 55% in size
Details: chicken DT40 Tdp1-/-;hTDP1 cells + 20 nM CPT, ATP luminescence, 48 h; series mostly up to 46.2 µM
Procedure: Human tyrosyl-DNA phosphodiesterase 1 (TDP1) is a novel repair gene, and we propose to use it as a new target for anticancer drug development. […] For the primary screen, Tdp1-/-;hTDP1 cells will be exposed to small molecules in the presence or absence of CPT, and their growth kinetics will be evaluated after 48 hours by measuring ATP activity. […] The hit compounds will then be evaluated in the presence or absence of CPT using Tdp1-/- cells. […]
Among all 420,000 compounds or so, about 50,000 (12%) were called active. Another 26% or so got no clear call; they are omitted. The call rests on the fitted dose curve; in most records, active means well fitted inhibition curve with a large enough effect; inconclusive means small, poorly fitted or top-dose-only effect; inactive means flat fitted curve, though single readings scatter. This excerpt belongs to a sample that is enriched for actives.
Could you please pick one outcome from this set? active, inactive

Consider the worked cases shown below.
Cc1cccc(N(C(=O)c2sc(C)nc2C)C(C(=O)NCC2CCCO2)c2ccccc2)c1 (stereo unspecified) | inactive
CCC(=O)c1c[nH]c(C(=O)NCC2CCCO2)c1 (stereo unspecified) | inactive
Cc1ccc(-c2ccc(=O)n(CC(=O)NCCCN3CCCCC3)n2)cc1 | inactive

input: Each compound tested received a call. Report the one for Cc1cc(C)c(S(=O)(=O)N2C=CC(C(F)(F)F)=NCC2)c(C)c1 .
output: inactive

input: Each compound tested received a call. Report the one for CCCCNC1(C#N)CCN(Cc2ccccc2)CC1 .
output: inactive

input: Each compound tested received a call. Report the one for CCC1CCc2c(sc(NC(C)=O)c2C#N)C1 (stereo unspecified) .
output: inactive

input: Each compound tested received a call. Report the one for CN1C(=O)/C(=C/c2ccc(C(=O)NC3CCCC3)cc2)Oc2ccccc21 .
output: active

input: Each compound tested received a call. Report the one for Cc1c(NC(=O)C(C)OC(=O)c2ccccc2O)c(=O)n(-c2ccccc2)n1C (stereo unspecified) .
output: inactive

From: PubChem BioAssay AID686979
